Test system: JAK2-dependent nuclear translocation of STAT5-GFP in U-2 OS osteosarcoma cells
Assay: STAT5 nuclear translocation assay (Cellomics), rhEpo stimulated U-2 OS STAT5-GFP cells
Type: cell-based
Conditions: Homo sapiens, U2OS; STAT5 translocation pathway
// values below are reported pIC50
// pIC50: -log10(molar conc.)

Measured on JAK2-dependent nuclear translocation of STAT5-GFP in U-2 OS osteosarcoma cells, OC1CN(Cc2ccc(Nc3ncc4ccn(-c5cc(F)c(CN6CCOCC6)c(F)c5)c4n3)cc2)C1 has a documented pIC50 of 7.82

Measured on JAK2-dependent nuclear translocation of STAT5-GFP in U-2 OS osteosarcoma cells, Cc1ccc(Nc2ncc3ccn(-c4cc(F)c(CN5CCNC(=O)C5)c(F)c4)c3n2)cc1CN1CCNCC1 has a documented pIC50 of 6.92

Measured on JAK2-dependent nuclear translocation of STAT5-GFP in U-2 OS osteosarcoma cells, Fc1cc(-n2ccc3cnc(Nc4ccnc(OC5CCOCC5)c4)nc32)cc(F)c1CN1CCOCC1 has a documented pIC50 of 7.66

More entries:
Measured on JAK2-dependent nuclear translocation of STAT5-GFP in U-2 OS osteosarcoma cells, Cc1ccc(Nc2ncc3ccn(-c4cc(F)c(CN5CCOCC5)c(F)c4)c3n2)cc1Cn1ccnc1 has a documented pIC50 of 7.58

Measured on JAK2-dependent nuclear translocation of STAT5-GFP in U-2 OS osteosarcoma cells, Cc1ccc(Nc2ncc3ccn(-c4ccc(C(=O)N5CCOCC5)c(F)c4)c3n2)cc1CN1CCNC(C)(C)C1 has a documented pIC50 of 7.00

Measured on JAK2-dependent nuclear translocation of STAT5-GFP in U-2 OS osteosarcoma cells, O=C1CN(c2cc(Nc3ncc4ccn(-c5cc(F)c(CN6CCOCC6)c(F)c5)c4n3)ccn2)CCN1 has a documented pIC50 of 7.80

Measured on JAK2-dependent nuclear translocation of STAT5-GFP in U-2 OS osteosarcoma cells, Cc1ccc(Nc2ncc3ccn(-c4ccc(C(=O)N5CCOCC5)c(F)c4)c3n2)cc1CN1CCOC2(COC2)C1 has a documented pIC50 of 6.87

Measured on JAK2-dependent nuclear translocation of STAT5-GFP in U-2 OS osteosarcoma cells, Fc1cc(-n2ccc3cnc(Nc4ccnc(N5CCNC(C(F)(F)F)C5)c4)nc32)cc(F)c1CN1CCOCC1 (racemic) has a documented pIC50 of 8.55

Measured on JAK2-dependent nuclear translocation of STAT5-GFP in U-2 OS osteosarcoma cells, C[C@@H]1CN(Cc2ccc(Nc3ncc4ccn(-c5ccc(S(=O)(=O)NC(C)(C)C)cc5)c4n3)cc2)C[C@H](C)N1 has a documented pIC50 of 7.23

Measured on JAK2-dependent nuclear translocation of STAT5-GFP in U-2 OS osteosarcoma cells, COC1CCN(Cc2cc(Nc3ncc4ccn(-c5cc(F)c(CN6CCOCC6)c(F)c5)c4n3)ccn2)C1 (racemic) has a documented pIC50 of 7.74

Measured on JAK2-dependent nuclear translocation of STAT5-GFP in U-2 OS osteosarcoma cells, Cc1ccc(Nc2ncc3ccn(-c4ccc(S(=O)(=O)NC(C)(C)C)cc4)c3n2)cc1CN1CCNCC1 has a documented pIC50 of 7.17

Measured on JAK2-dependent nuclear translocation of STAT5-GFP in U-2 OS osteosarcoma cells, OCCOc1ccc(Nc2ncc3ccn(-c4cc(F)c(CN5CCOCC5)c(F)c4)c3n2)cn1 has a documented pIC50 of 7.40

Measured on JAK2-dependent nuclear translocation of STAT5-GFP in U-2 OS osteosarcoma cells, Fc1cc(-n2ccc3cnc(Nc4ccnc(OCC5CCNCC5)c4)nc32)cc(F)c1CN1CCOCC1 has a documented pIC50 of 7.17

Measured on JAK2-dependent nuclear translocation of STAT5-GFP in U-2 OS osteosarcoma cells, Cc1ccc(Nc2ncc3ccn(-c4cc(F)c(CN5CCS(=O)(=O)CC5)c(F)c4)c3n2)cc1CN1CCNCC1 has a documented pIC50 of 7.97

Measured on JAK2-dependent nuclear translocation of STAT5-GFP in U-2 OS osteosarcoma cells, C[C@@H]1CN(Cc2cc(Nc3ncc4ccn(-c5cc(F)c(CN6CCOCC6)c(F)c5)c4n3)ccn2)C[C@H](C)N1 has a documented pIC50 of 6.82

---

Biological target: GST-JAK2(808-1132) (Homo sapiens, UniProt O60674)
Construct: GST-JAK2(808-1132); purchased Invitrogen (Carlsbad, USA) #4288
Sequence (O60674 808-1132): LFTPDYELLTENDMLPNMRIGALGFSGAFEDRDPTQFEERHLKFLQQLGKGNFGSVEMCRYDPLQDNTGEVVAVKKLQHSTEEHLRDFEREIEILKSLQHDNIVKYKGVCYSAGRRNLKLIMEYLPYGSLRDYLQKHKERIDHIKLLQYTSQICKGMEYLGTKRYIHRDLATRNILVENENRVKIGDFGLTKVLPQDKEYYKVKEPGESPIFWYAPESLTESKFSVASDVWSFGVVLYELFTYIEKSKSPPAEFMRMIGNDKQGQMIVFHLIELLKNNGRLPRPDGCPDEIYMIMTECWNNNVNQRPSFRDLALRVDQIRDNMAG
Experiment: JAK2 kinase assay (Caliper mobility shift, LabChip 3000)
Type: biochemical
measurement kind: IC50 (nM)
API: value field is a number in nM; no unit string.

compound Cc1ccc(Nc2ncc3ccn(-c4cc(F)c(CN5CCOCC5)c(F)c4)c3n2)cc1CN1CCC(F)(F)C1 , IC50 observed: 13

compound C[C@@H]1CN(C(=O)c2cc(Nc3ncc4ccn(-c5cc(F)c(CN6CCOCC6)c(F)c5)c4n3)ccn2)C[C@H](C)N1 , IC50 observed: 13

Read the next record carefully.
compound O=C1CN(Cc2c(F)cc(-n3ccc4cnc(Nc5ccc(CN6CCN(C7CC7)CC6)cc5)nc43)cc2F)CCN1 , IC50 observed: 7.2

---

// values below are reported IC50
System: JAK2-dependent nuclear translocation of STAT5-GFP in U-2 OS osteosarcoma cells
Test: STAT5 nuclear translocation assay (Cellomics), rhEpo stimulated U-2 OS STAT5-GFP cells
Format: cell-based
Details: Homo sapiens, U2OS; STAT5 translocation pathway
Source text: The medium-throughput (96-well format) cellular automated fluorescence microscopy Cellomics assay can be routinely used to assess the functional activation of Janus Kinases (JAKs), based on the nuclear translocation of their substrate, Signal Transducer and Activator of Transcription (STAT). […]
API: value field is a number in nM; no unit string.

Known results for molecules:
Measured on JAK2-dependent nuclear translocation of STAT5-GFP in U-2 OS osteosarcoma cells, O=C(c1cc(Nc2ncc3ccn(-c4cc(F)c(CN5CCOCC5)c(F)c4)c3n2)ccn1)N1CCNCC1 [Example 390] has a documented IC50 of 104

Measured on JAK2-dependent nuclear translocation of STAT5-GFP in U-2 OS osteosarcoma cells, Cc1ccc(Nc2ncc3ccn(-c4cc(F)c(CN5CCOCC5)c(F)c4)c3n2)cc1CN1[C@H]2CC[C@@H]1CC2 [Example 436] has a documented IC50 of 6.1

Measured on JAK2-dependent nuclear translocation of STAT5-GFP in U-2 OS osteosarcoma cells, Fc1cc(-n2ccc3cnc(Nc4ccc(CN5CCNC(C(F)(F)F)C5)cc4)nc32)cc(F)c1CN1CCOCC1 (racemic) [Example 476] has a documented IC50 of 34.5

Measured on JAK2-dependent nuclear translocation of STAT5-GFP in U-2 OS osteosarcoma cells, O=C(c1ccc(-n2ccc3cnc(Nc4ccc(CC5CCNCC5)cc4)nc32)cc1F)N1CCOCC1 [Example 381] has a documented IC50 of 43

More entries:
Measured on JAK2-dependent nuclear translocation of STAT5-GFP in U-2 OS osteosarcoma cells, O=C(c1cccc(Nc2ncc3ccn(-c4cc(F)c(CN5CCOCC5)c(F)c4)c3n2)c1)N1CCN(C2CC2)CC1 [Example 459] has a documented IC50 of 104

Measured on JAK2-dependent nuclear translocation of STAT5-GFP in U-2 OS osteosarcoma cells, C[C@@H]1CN(Cc2ccc(Nc3ncc4ccn(-c5cc(F)c(CN6CCOCC6)c(F)c5)c4n3)c(F)c2)C[C@H](C)N1 [Example 477] has a documented IC50 of 718

Measured on JAK2-dependent nuclear translocation of STAT5-GFP in U-2 OS osteosarcoma cells, CN1CCN(c2ccc(Nc3ncc4ccn(-c5ccc6c(c5)CC(=O)N6C)c4n3)cn2)CC1 [Example 448] has a documented IC50 of 7.4

---

Molecular target: GST-JAK2(808-1132) (Homo sapiens)
Construct: GST-JAK2(808-1132); purchased Invitrogen (Carlsbad, USA) #4288
Assay: JAK2 kinase assay (Caliper mobility shift, LabChip 3000)
Assay type: biochemical
Description: All four kinases of the JAK/TYK-kinase family were used as purified recombinant GST-fusion proteins, containing the active kinase domains. GST-JAK1 (866-1154), GST-JAK3(811-1124), and GST-TYK2(888-1187) were expressed and purified by affinity chromatography at the EPK biology unit. […] The terminated reactions were transferred to the Caliper LabChip 3000 reader and the turnover of each reaction was measured by determining the substrate/product ratio. […]
measurement kind: IC50 (nM)
API: value field is a number in nM; no unit string.

compound C[C@@H]1CN(Cc2ccc(Nc3ncc4ccn(-c5cc(F)c(CN6CCOCC6)c(F)c5)c4n3)c(F)c2)C[C@H](C)N1 , IC50 observed: 17

compound Cc1ccc(Nc2ncc3ccn(-c4ccc(C(=O)N5CCN(C)CC5)cc4)c3n2)cc1C , IC50 observed: 17

compound C[C@@H]1CN(c2ccc(Nc3ncc4ccn(-c5ccc(S(C)(=O)=O)cc5)c4n3)cn2)C[C@H](C)N1 , IC50 observed: 6

compound Cc1cc(Nc2ncc3ccn(-c4cc(F)c(CN5CCS(=O)(=O)CC5)c(F)c4)c3n2)ccc1F , IC50 observed: 3.3

compound CN1CCN(c2ccc(Nc3ncc4ccn(-c5cc(F)c(CN6CCOCC6)c(F)c5)c4n3)cn2)C(=O)C1 , IC50 observed: 5.5

compound CN1CCN(C(=O)c2ccc(-n3ccc4cnc(Nc5ccc(F)cc5)nc43)cc2)CC1 , IC50 observed: 32

More entries:
compound CC(C)Oc1ccc(Nc2ncc3ccn(-c4ccc(C(=O)N5CCOCC5)c(F)c4)c3n2)cc1 , IC50 observed: 5.6

compound Cc1ccc(Nc2ncc3ccn(-c4ccc(C(=O)N5CCOCC5)c(F)c4)c3n2)cc1CN1CCNC2(CC2)C1 , IC50 observed: 9.9

compound COCc1ccc(Nc2ncc3ccn(-c4cc(F)c(C(=O)N5CCN(C)CC5)c(F)c4)c3n2)cc1 , IC50 observed: 9.5

compound C[C@@H]1CN(Cc2ccc(Nc3ncc4ccn(-c5cc(F)c(C(=O)N6CCOCC6)c(F)c5)c4n3)cc2)[C@@H](C)CN1 (racemic) , IC50 observed: 12

compound CCN1CCN(Cc2ccc(Nc3ncc4ccn(-c5ccc(S(C)(=O)=O)cc5)c4n3)nc2)CC1 , IC50 observed: 940

compound Fc1cc(-n2ccc3cnc(Nc4ccc(Cl)c(CN5CCNCC5)c4)nc32)cc(F)c1CN1CCOCC1 , IC50 observed: 7

compound Cc1cnn(Cc2cc(Nc3ncc4ccn(-c5cc(F)c(CN6CCOCC6)c(F)c5)c4n3)ccc2C)c1 , IC50 observed: 5.1

compound Fc1cc(-n2ccc3cnc(Nc4ccncc4)nc32)cc(F)c1CN1CCOCC1 , IC50 observed: 5.9

compound C[C@@H]1CN(c2ncc(Nc3ncc4ccn(-c5cc(F)c(CN6CCOCC6)c(F)c5)c4n3)cc2Cl)C[C@H](C)N1 , IC50 observed: 0.7
